Measured IC50, listed per entry for reference.
Experiment: Inhibition of Sulfolobus solfataricus HPPS
Set-up: species or system Saccharolobus solfataricus

line_notation	IC50
O=P(O)(O)C(O)(Cn1ccnc1)P(=O)(O)O	90 nM
O=P(O)(O)C(O)(Cc1cccc(-c2cccc(-c3ccccc3)c2)c1)P(=O)(O)O	460 nM
O=P(O)(O)C(O)(COc1cccc(-c2cccc(-c3ccccc3)c2)c1)P(=O)(O)O	360000 nM
O=P(O)(O)C(O)(Cc1cccc(-c2cccc3c2oc2ccccc23)c1)P(=O)(O)O	1200 nM
O=P(O)(O)C(O)(Cc1cnc2ccccn12)P(=O)(O)O	50 nM

Reference for the values: ChEMBL document CHEMBL1145505
